# System: 966289-007-R4-J1-PDC complex spheroid viability;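 note: spheroids exposed to the agents for seven days before readout; percent viability relative to DMSO vehicle control wells taken as 100%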
# assay.overview: Anticancer human tumor 966289-007-R4-J1-PDC patient-derived pancreatic adenocarcinoma cell line growth inhibition [GQUAD]
# experimental.parameters: second compound 0.1 µM; first compound 0.1 µM; active compounds read low
# Source text: DNA G-quadruplex Stabilizer Agents in Combinations in Complex Spheroids A high-throughput screen of multi-cell type tumor spheroids was designed to identify active combinations of DNA G-quadruplex stabilizer agents and targeted small molecules. […] Compounds. […] If the clinical Cmax for an agent had not been determined, the highest concentration tested was 10 microM. […]
Collected viability, T/C values appear next to each entry.

compound | viability, T/C (%)
O=C(c1cc(Cc2n[nH]c(=O)c3ccccc23)ccc1F)N1CCN(C(=O)C2CC2)CC1 + CN(C)c1ccc(Nc2c3ccc(NC(=O)CCN4CCCC4)cc3nc3cc(NC(=O)CCN4CCCC4)ccc23)cc1 | 97.9
CC(C)(O)C1CCC(Nc2ccc3ncc(-c4cccc(C(F)(F)F)c4)n3n2)CC1 (stereo not drawn) + CN(C)c1ccc(Nc2c3ccc(NC(=O)CCN4CCCC4)cc3nc3cc(NC(=O)CCN4CCCC4)ccc23)cc1 | 101
O=c1[nH]cc(F)c(=O)[nH]1 + CN(C)c1ccc(Nc2c3ccc(NC(=O)CCN4CCCC4)cc3nc3cc(NC(=O)CCN4CCCC4)ccc23)cc1 | 113
